Numbers sourced from ChEMBL document CHEMBL1135203.

Sequence of the target: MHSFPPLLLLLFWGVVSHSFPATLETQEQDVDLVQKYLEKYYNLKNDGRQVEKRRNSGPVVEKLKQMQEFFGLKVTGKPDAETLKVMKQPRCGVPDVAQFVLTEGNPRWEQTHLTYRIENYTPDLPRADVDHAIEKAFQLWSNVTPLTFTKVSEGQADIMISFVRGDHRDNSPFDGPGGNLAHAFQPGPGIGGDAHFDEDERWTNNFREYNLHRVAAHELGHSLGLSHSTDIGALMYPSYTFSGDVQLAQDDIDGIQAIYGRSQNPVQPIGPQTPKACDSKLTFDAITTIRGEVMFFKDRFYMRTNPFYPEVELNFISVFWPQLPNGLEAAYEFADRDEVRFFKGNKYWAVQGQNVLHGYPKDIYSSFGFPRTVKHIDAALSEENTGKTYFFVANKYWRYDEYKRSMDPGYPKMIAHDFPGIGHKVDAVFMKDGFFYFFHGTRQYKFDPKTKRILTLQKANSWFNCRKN
# reported pIC50; entries follow
To interpret pIC50, take it as minus log10 of a concentration measured in moles per litre.

[
  {
    "compound": "O=C(NO)C1CN(C(=O)c2ccccc2)c2ccccc2CN1S(=O)(=O)c1ccc(Oc2ccc(Cl)cc2)cc1 (stereo not drawn)",
    "pIC50": 7.23
  }
]

Enquiry: Given the compound CC#CCOc1ccc(S(=O)(=O)N2Cc3ccccc3N(C(=O)C3CC3)CC2C(=O)NO)cc1 (stereo not drawn) , what is its reported pIC50?
Return: 6.08

Enquiry: Given the compound O=C(NO)C1CN(C(=O)c2cccs2)c2ccccc2CN1S(=O)(=O)c1ccc(Oc2ccc(Cl)cc2)cc1 (stereo not drawn) , what is its reported pIC50?
Return: 7.46

Enquiry: Given the compound COc1ccc(S(=O)(=O)N2Cc3ccccc3N(C(C)=O)CC2C(=O)NO)cc1 (stereo not drawn) , what is its reported pIC50?
Return: 7.74

Enquiry: Given the compound COCC(=O)N1CC(C(=O)NO)N(S(=O)(=O)c2ccc(Oc3ccncc3)cc2)Cc2ccccc21 (stereo not drawn) , what is its reported pIC50?
Return: 6.12

Enquiry: Given the compound COc1ccc(S(=O)(=O)N2Cc3ccccc3N(C(=O)c3cccs3)CC2C(=O)NO)cc1 (stereo not drawn) , what is its reported pIC50?
Return: 7.70

Enquiry: Given the compound CCOc1ccc(C(=O)N2CC(C(=O)NO)N(S(=O)(=O)c3ccc(OC)cc3)Cc3ccccc32)cc1 (stereo not drawn) , what is its reported pIC50?
Return: 7.62

Enquiry: Given the compound COCC(=O)N1CC(C(=O)NO)N(S(=O)(=O)c2ccc(Oc3ccc(Cl)cc3)cc2)Cc2ccccc21 (stereo not drawn) , what is its reported pIC50?
Return: 7.21

---

Test system: Rattus norvegicus
Experiment: Dialysis activity is detected at a dose of 50 mpk after 2 hr of ip administration
Format: functional
Parameters: unit not given here
readout: Activity
Quick one: just the number, no unit, thanks!

Guide cases for Activity, answers given:
[
  {
    "molecule": "COc1ccc(S(=O)(=O)N2Cc3ccccc3N(C(=O)CCc3ccccc3)CC2C(=O)NO)cc1 (centres undefined)",
    "Activity": 0.22
  },
  {
    "molecule": "COc1ccc(S(=O)(=O)N2Cc3ccccc3N(C(=O)c3ccccc3)CC2C(=O)NO)cc1 (centres undefined)",
    "Activity": 1.2
  }
]

Enquiry: Given the molecule COc1ccc(S(=O)(=O)N2Cc3ccccc3N(C(=O)c3cccs3)CC2C(=O)NO)cc1 (centres undefined) , what is its reported Activity?
Return: 1.1

Enquiry: Given the molecule COc1ccc(S(=O)(=O)N2Cc3ccccc3N(C(C)=O)CC2C(=O)NO)cc1 (centres undefined) , what is its reported Activity?
Return: 1.7

---

Target: Disintegrin and metalloproteinase domain-containing protein 17 (Homo sapiens)
Sequence (P78536 whole entry, the tested form may be a part): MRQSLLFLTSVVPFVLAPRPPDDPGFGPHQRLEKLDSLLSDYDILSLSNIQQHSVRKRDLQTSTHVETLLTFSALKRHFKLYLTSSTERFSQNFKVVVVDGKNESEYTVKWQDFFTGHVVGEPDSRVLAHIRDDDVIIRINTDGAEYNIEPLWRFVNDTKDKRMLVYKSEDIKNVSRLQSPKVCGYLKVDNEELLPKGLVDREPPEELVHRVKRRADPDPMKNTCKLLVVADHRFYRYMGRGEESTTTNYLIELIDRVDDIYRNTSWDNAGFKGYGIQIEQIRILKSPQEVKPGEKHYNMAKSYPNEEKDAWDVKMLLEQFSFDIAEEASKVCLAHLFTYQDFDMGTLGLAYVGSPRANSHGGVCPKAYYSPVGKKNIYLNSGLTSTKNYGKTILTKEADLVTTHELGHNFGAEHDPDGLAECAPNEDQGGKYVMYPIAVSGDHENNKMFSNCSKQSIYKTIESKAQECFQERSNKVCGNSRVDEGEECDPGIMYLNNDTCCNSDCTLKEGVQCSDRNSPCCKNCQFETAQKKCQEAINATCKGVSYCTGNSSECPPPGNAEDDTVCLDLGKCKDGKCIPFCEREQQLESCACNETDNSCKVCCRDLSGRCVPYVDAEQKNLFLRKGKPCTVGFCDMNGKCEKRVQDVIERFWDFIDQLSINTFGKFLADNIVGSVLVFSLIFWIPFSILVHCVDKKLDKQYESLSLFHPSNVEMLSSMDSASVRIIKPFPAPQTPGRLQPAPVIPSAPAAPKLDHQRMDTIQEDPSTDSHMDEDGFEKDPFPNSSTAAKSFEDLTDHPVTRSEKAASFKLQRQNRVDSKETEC
# reported IC50; entries follow
Answer with a number only, understood to be in nM.

[
  {
    "compound": "CC#CCOc1ccc(S(=O)(=O)N2Cc3ccccc3N(C(=O)C3CC3)CC2C(=O)NO)cc1 (stereo unspecified)",
    "measurement-units": "nM",
    "IC50": 10
  },
  {
    "compound": "O=C(NO)C1CN(C(=O)c2ccccc2)c2ccccc2CN1S(=O)(=O)c1ccc(Oc2ccc(Cl)cc2)cc1 (stereo unspecified)",
    "measurement-units": "nM",
    "IC50": 528
  }
]

Enquiry: Given the compound CC#CCOc1ccc(S(=O)(=O)N2Cc3ccccc3N(S(C)(=O)=O)CC2C(=O)NO)cc1 (stereo unspecified) , what is its reported IC50?
Return: 20

Enquiry: Given the compound COCC(=O)N1CC(C(=O)NO)N(S(=O)(=O)c2ccc(Oc3ccncc3)cc2)Cc2ccccc21 (stereo unspecified) , what is its reported IC50?
Return: 157

Enquiry: Given the compound COCC(=O)N1CC(C(=O)NO)N(S(=O)(=O)c2ccc(Oc3ccc(Cl)cc3)cc2)Cc2ccccc21 (stereo unspecified) , what is its reported IC50?
Return: 157

Enquiry: Given the compound O=C(NO)C1CN(C(=O)c2cccs2)c2ccccc2CN1S(=O)(=O)c1ccc(Oc2ccc(Cl)cc2)cc1 (stereo unspecified) , what is its reported IC50?
Return: 254

---

Parameter 'readout' = pIC50; parameter 'system' = Collagenase 3 (Homo sapiens).
To interpret pIC50, take it as minus log10 of a concentration measured in moles per litre.

Guide cases for pIC50, answers given:
[
  {
    "compound": "COCC(=O)N1CC(C(=O)NO)N(S(=O)(=O)c2ccc(Oc3ccncc3)cc2)Cc2ccccc21 (stereo unspecified)",
    "pIC50": 8.70
  },
  {
    "compound": "COCC(=O)N1CC(C(=O)NO)N(S(=O)(=O)c2ccc(OC)cc2)Cc2ccccc21 (stereo unspecified)",
    "pIC50": 8.70
  },
  {
    "compound": "CC#CCOc1ccc(S(=O)(=O)N2Cc3ccccc3N(C(=O)C3CC3)CC2C(=O)NO)cc1 (stereo unspecified)",
    "pIC50": 7.54
  },
  {
    "compound": "CCOc1ccc(C(=O)N2CC(C(=O)NO)N(S(=O)(=O)c3ccc(OC)cc3)Cc3ccccc32)cc1 (stereo unspecified)",
    "pIC50": 8.70
  },
  {
    "compound": "O=C(NO)C1CN(C(=O)c2cccs2)c2ccccc2CN1S(=O)(=O)c1ccc(Oc2ccc(Cl)cc2)cc1 (stereo unspecified)",
    "pIC50": 8.40
  }
]

Turning to the following compound.
Enquiry: Given the compound COc1ccc(S(=O)(=O)N2Cc3ccccc3N(C(=O)c3cccs3)CC2C(=O)NO)cc1 (stereo unspecified) , what is its reported pIC50?
Return: 9.00

---

Parameter 'readout' = pIC50; parameter 'system' = Matrix metalloproteinase-9 (Homo sapiens, UniProt P14780).
Sequence (P14780 whole entry): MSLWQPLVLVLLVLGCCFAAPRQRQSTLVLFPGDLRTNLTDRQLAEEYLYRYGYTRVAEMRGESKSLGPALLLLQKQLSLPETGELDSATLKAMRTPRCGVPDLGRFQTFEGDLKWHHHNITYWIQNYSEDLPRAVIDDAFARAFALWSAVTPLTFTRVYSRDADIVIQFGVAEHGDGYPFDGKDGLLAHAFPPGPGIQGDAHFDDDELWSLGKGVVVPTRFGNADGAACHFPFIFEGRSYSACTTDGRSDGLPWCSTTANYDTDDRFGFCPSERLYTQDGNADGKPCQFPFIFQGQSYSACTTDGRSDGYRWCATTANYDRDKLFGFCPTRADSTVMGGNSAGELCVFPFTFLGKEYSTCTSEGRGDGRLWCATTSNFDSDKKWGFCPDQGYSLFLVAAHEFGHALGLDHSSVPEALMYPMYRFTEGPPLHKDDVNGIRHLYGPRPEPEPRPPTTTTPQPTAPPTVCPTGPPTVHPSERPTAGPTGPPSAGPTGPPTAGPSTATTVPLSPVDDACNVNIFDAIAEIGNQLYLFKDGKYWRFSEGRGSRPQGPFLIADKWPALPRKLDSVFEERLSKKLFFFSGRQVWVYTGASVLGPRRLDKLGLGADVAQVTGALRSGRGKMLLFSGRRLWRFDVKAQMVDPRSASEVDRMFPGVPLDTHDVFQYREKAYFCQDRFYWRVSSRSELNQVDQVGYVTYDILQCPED
To interpret pIC50, take it as minus log10 of a concentration measured in moles per litre.

Guide cases for pIC50, answers given:
[
  {
    "molecule": "CC#CCOc1ccc(S(=O)(=O)N2Cc3ccccc3N(C(=O)C3CC3)CC2C(=O)NO)cc1 (stereo unspecified)",
    "pIC50": 7.48
  },
  {
    "molecule": "CC#CCOc1ccc(S(=O)(=O)N2Cc3ccccc3N(S(C)(=O)=O)CC2C(=O)NO)cc1 (stereo unspecified)",
    "pIC50": 7.02
  },
  {
    "molecule": "COCC(=O)N1CC(C(=O)NO)N(S(=O)(=O)c2ccc(Oc3ccncc3)cc2)Cc2ccccc21 (stereo unspecified)",
    "pIC50": 8.70
  },
  {
    "molecule": "CCOc1ccc(C(=O)N2CC(C(=O)NO)N(S(=O)(=O)c3ccc(OC)cc3)Cc3ccccc32)cc1 (stereo unspecified)",
    "pIC50": 8.70
  },
  {
    "molecule": "COc1ccc(S(=O)(=O)N2Cc3ccccc3N(C(=O)C3CCCCC3)CC2C(=O)NO)cc1 (stereo unspecified)",
    "pIC50": 7.89
  }
]

Turning to the following molecule.
Enquiry: Give the reported pIC50 for O=C(NO)C1CN(C(=O)c2cccs2)c2ccccc2CN1S(=O)(=O)c1ccc(Oc2ccc(Cl)cc2)cc1 (stereo unspecified) (system: Matrix metalloproteinase-9 (Homo sapiens, UniProt P14780)).
Return: 8.70
